Origin of measurements: paper PMC5540273

Recorded measurements of %Inh, one per entry
# System: RET;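 note: KINOMEscan kinase panel screen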
# reported_conditions: concentration: 1 μM, replicates: in singlicate; n = 1

mol_smiles	system_tested	%Inh / %
CN(C)CCOc1ccc(-c2cc(-c3ccc(Cl)c(O)c3)c(-c3ccncc3)[nH]2)cc1.Cl.Cl	RET	60
Cc1ccc(NC(=O)c2ccnc(N3CCCCC3)c2)cc1-c1ccc(C(=O)NCC2CC2)cc1	RET	5
Nc1cccc(-c2ccc3c(N)n[nH]c3c2)c1	RET	5
COc1cc(Nc2ccnc3cc(-c4ccncc4)ccc23)cc(OC)c1OC.Cl	RET	24
Nc1ncnc2scc(-c3ccc(NC(=O)Cc4cc(F)ccc4F)cc3)c12.O=C(O)C(F)(F)F	RET	23
CNc1nccc(-c2ccc3c(N)n[nH]c3c2)n1	RET	80
